# EXPERIMENTAL_TARGET: T1, ROR1 naturally expressed on human tumor cell lines (A549, Jeko-1, SW620, PA-1) (human, UniProt Q01973 30-937)
# T1 construct: whole, on cells; also called cells expressing ROR1
# T1 sequence (Q01973 30-937): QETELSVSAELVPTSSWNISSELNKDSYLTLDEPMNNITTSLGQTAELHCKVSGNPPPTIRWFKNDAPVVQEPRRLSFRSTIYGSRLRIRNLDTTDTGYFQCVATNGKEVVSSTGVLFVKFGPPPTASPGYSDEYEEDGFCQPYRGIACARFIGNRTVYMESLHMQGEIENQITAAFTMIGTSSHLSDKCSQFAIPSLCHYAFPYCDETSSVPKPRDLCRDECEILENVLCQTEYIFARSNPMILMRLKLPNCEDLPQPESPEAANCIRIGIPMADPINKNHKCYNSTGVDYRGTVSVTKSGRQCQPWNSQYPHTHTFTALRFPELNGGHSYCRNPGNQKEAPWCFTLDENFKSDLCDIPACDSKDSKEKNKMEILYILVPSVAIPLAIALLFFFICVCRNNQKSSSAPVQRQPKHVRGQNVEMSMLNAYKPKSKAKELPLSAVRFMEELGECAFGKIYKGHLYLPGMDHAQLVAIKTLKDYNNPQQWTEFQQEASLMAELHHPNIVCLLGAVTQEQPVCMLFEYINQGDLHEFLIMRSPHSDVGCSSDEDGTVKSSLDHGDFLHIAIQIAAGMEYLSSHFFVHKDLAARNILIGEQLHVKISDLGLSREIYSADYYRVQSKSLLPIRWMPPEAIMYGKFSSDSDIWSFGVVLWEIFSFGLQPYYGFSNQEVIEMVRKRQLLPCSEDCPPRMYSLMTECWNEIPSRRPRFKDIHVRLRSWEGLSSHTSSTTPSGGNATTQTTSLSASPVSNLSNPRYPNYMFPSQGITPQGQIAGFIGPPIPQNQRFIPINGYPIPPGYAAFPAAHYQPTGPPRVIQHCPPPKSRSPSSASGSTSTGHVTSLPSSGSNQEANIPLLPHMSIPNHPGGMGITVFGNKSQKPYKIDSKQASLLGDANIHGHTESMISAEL
# ASSAY_NAME: FACS on SW620 cells naturally expressing ROR1

BINDER | EC50, nM
UC-961 (antibody, V domains shown) VH: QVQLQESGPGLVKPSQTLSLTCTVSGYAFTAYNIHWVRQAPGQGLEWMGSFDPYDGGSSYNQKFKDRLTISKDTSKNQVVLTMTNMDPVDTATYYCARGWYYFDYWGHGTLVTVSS VL: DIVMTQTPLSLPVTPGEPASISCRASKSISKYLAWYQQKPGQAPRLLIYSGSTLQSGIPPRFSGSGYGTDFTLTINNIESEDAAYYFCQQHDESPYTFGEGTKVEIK | 0.025
hz29H5D8-3.1 (antibody, human IgG1, kappa, V domains shown, Humanized, human IgG1/kappa) VH: QVQLVQSGAEVKKPGSSVKVSCKASGYTFTNYGISWVRQAPGQGLEWMGEIYPRSVNTYYAQKFQGRVTITADKSTSTAYMELSSLRSEDTAVYYCARHYYGSSLDYWGQGTLVTVSS VL: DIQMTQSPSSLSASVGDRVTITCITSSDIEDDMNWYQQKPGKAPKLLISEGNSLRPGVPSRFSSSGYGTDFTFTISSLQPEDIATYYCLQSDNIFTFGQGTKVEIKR | 0.011
hz29H5D8-3.2 (antibody, human IgG1, kappa, V domains shown, Humanized, human IgG1/kappa) VH: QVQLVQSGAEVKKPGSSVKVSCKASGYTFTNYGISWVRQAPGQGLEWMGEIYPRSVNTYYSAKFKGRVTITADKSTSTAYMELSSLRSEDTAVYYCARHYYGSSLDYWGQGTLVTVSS VL: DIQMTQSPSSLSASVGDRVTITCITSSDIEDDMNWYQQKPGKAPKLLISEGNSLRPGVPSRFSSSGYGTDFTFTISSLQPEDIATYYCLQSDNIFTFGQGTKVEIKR | 0.01
hz29H5D8-2.1 (antibody, human IgG1, kappa, V domains shown, Humanized, human IgG1/kappa) VH: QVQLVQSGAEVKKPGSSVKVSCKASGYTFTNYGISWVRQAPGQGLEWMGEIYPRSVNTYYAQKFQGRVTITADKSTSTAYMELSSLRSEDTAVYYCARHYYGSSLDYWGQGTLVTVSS VL: DIQMTQSPSSLSASVGDRVTITCITSSDIEDDMNWYQQKPGKAPKLLIYEGNSLRPGVPSRFSSSGYGTDFTFTISSLQPEDIATYYCLQSDNIFTFGQGTKVEIKR | 0.015
